Entries below carry reported AC50 on Sodium-dependent serotonin transporter (Homo sapiens).
Sequence (P31645 whole entry): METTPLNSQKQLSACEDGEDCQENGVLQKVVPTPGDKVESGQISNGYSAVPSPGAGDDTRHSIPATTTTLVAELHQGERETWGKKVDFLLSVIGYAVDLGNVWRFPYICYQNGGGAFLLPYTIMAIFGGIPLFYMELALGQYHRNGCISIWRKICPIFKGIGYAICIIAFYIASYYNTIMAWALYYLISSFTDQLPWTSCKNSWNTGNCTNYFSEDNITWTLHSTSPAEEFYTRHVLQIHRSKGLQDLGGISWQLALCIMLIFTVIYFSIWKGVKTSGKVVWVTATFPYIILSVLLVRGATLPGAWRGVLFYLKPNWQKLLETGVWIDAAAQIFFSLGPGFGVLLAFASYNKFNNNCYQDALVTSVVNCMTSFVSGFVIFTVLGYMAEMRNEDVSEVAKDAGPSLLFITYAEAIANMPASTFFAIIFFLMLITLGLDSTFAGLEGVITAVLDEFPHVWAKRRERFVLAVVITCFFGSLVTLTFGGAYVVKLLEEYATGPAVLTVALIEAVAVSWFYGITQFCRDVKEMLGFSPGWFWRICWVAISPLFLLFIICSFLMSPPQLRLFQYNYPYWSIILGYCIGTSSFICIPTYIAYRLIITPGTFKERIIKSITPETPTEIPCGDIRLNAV

| Compound | Experimental target | AC50 |
| --- | --- | --- |
| CCCCC1(CC)C(=O)NC(=O)NC1=O | Sodium-dependent serotonin transporter (Homo sapiens) | > 30 µM |
| C=C(C)[C@@H]1CCC(C)=C[C@H]1c1c(O)cc(CCCCC)cc1O | Sodium-dependent serotonin transporter (Homo sapiens) | > 30 µM |
| CCCCCCOC(=O)CCC(=O)CN [HEXAMINOLEVULINATE] | Sodium-dependent serotonin transporter (Homo sapiens) | > 30 µM |
| CCN(CC)C(=O)C1CN2CCc3cc(OC)c(OC)cc3C2CC1OC(C)=O (stereo not drawn) [BENZQUINAMIDE] | Sodium-dependent serotonin transporter (Homo sapiens) | > 30 µM |
| CC1(C)O[C@@H]2[C@@H](CO[C@@]3(COS(N)(=O)=O)OC(C)(C)O[C@@H]23)O1 [TOPIRAMATE] | Sodium-dependent serotonin transporter (Homo sapiens) | > 10 µM |
| CC(=O)OCC[N+](C)(C)C | Sodium-dependent serotonin transporter (Homo sapiens) | > 30 µM |
| CCCCC[C@H](O)/C=C/[C@H]1[C@H](O)CC(=O)[C@@H]1C/C=C\CCCC(=O)O | Sodium-dependent serotonin transporter (Homo sapiens) | > 30 µM |
| O=C(O)CSCC(=O)NC1CCSC1=O (stereo not drawn) | Sodium-dependent serotonin transporter (Homo sapiens) | > 30 µM |
| NS(=O)(=O)c1cc2c(cc1C(F)(F)F)NC(Cc1ccccc1)NS2(=O)=O (stereo not drawn) [BENDROFLUMETHIAZIDE] | Sodium-dependent serotonin transporter (Homo sapiens) | > 30 µM |
| CC(C)c1cc2c(cc1S(=O)(=O)O)[C@@]1(C)CCC[C@@](C)(C(=O)O)[C@@H]1CC2 | Sodium-dependent serotonin transporter (Homo sapiens) | > 30 µM |
| CCCOC(C(=O)OC1CCN(C)CC1)(c1ccccc1)c1ccccc1 | Sodium-dependent serotonin transporter (Homo sapiens) | > 30 µM |
| Cc1cc2nc3c(=O)[nH]c(=O)nc-3n(C[C@H](O)[C@H](O)[C@H](O)COP(=O)(O)O)c2cc1C [RIBOFLAVIN 5'-PHOSPHATE] | Sodium-dependent serotonin transporter (Homo sapiens) | > 30 µM |
| C[C@@H]1CCC[C@H](C)N1NC(=O)c1ccc(Cl)c(S(N)(=O)=O)c1 [CLOPAMIDE] | Sodium-dependent serotonin transporter (Homo sapiens) | > 30 µM |
| CC(=O)Oc1ccccc1C(=O)Nc1ncc([N+](=O)[O-])s1 [NITAZOXANIDE] | Sodium-dependent serotonin transporter (Homo sapiens) | 6.3 µM |
| NC(=O)CCC/N=C(\c1ccc(Cl)cc1)c1cc(F)ccc1O [PROGABIDE] | Sodium-dependent serotonin transporter (Homo sapiens) | > 10 µM |
| C=CC1=C(C(=O)O)N2C(=O)[C@@H](NC(=O)/C(=N\OCC(=O)O)c3csc(N)n3)[C@H]2SC1 | Sodium-dependent serotonin transporter (Homo sapiens) | > 30 µM |
| CC[N+]1(C)CCCC(OC(=O)C(O)(c2ccccc2)c2ccccc2)C1 (stereo not drawn) [PIPENZOLATE] | Sodium-dependent serotonin transporter (Homo sapiens) | > 30 µM |
| O=C(CCCN1CCC(n2c(O)nc3ccccc32)CC1)c1ccc(F)cc1 | Sodium-dependent serotonin transporter (Homo sapiens) | > 30 µM |
